Collected Incidence of adverse effect: Muscle tremor values appear next to each entry.
system: Male SD rats; assay: Onset time, last time, palinesthesia time and adverse effects at 2ED50 via the rat tail vein; format: in vivo; details: Example 8, 2ED50 via tail vein, 10 rats per group
Reply numerically in %, unit not repeated.

COMPOUND | VALUE_UNITS | OBSERVED
COCCOC(=O)c1cncn1[C@H](C)c1ccccc1 [Compound I] | % | 70

Next:
Task: Looking for the measured Incidence of adverse effect: Muscle tremor of CCOC(=O)c1cncn1[C@H](C)c1ccccc1 [Etomidate, reference compound] , can you help?
Output: 70

* * *

tested on: self-synthesis of adrenocortical hormone; assay: Increase degree of cortical hormone (cortisol, corticosterone) in blood serum after ACTH stimulation, ELISA; assay type: in vivo; settings: Example 10; Beagle dogs, 2ED50; ratio of peak value to base value, dexamethasone baseline, 1 h after ACTH
MEASUREMENT_KIND: Increase degree of cortisol
Answer as a number with no unit attached.

Worked cases, Increase degree of cortisol given:
COMPOUND | EXPERIMENTAL_TARGET | Increase degree of cortisol
COCCOC(=O)c1cncn1C(C)c1ccccc1 (racemic) [Compound V] | self-synthesis of adrenocortical hormone | 5.17
COCCOC(=O)c1cncn1[C@H](C)c1ccccc1 [Compound I] | self-synthesis of adrenocortical hormone | 19.88
CCOC(=O)c1cncn1[C@H](C)c1ccccc1 [Etomidate, reference compound] | self-synthesis of adrenocortical hormone | 2.12

Task: Looking for the measured Increase degree of cortisol of COCCOC(=O)c1cncn1[C@@H](C)c1ccccc1 [Compound IV] , can you help?
Output: 3.32
